assay: Compound was tested for inhibiting the entry of replication deffective HIV-1 (YU-2) in to […] cells; format: functional, cell-based; settings: Homo sapiens
// boundary case: IC50 equal to 0.3 nM maps to 0.0; strictly smaller maps to 1.0

Observe how each entry below is paired with its result.
CCC[C@@H](c1ccc(C(F)(F)F)cc1)N1CCN(C2(C)CCN(C(=O)c3c(C)ncnc3C)CC2)C[C@@H]1C; 0.0
Cc1ncnc(C)c1C(=O)N1CCC(C)(N2CCN([C@@H](C)c3ccc(C(F)(F)F)cc3)[C@@H](C)C2)CC1; 0.0
Cc1ncnc(C)c1C(=O)N1CCC(C)(N2CCN([C@@H](Cc3ccccc3)c3ccc(C(F)(F)F)cc3)[C@@H](C)C2)CC1; 1.0
Cc1ncnc(C)c1C(=O)N1CCC(C)(N2CCN([C@@H](CCC(F)(F)F)c3ccc(C(F)(F)F)cc3)[C@@H](C)C2)CC1; 0.0
COC[C@@H](c1ccc(C(F)(F)F)cc1)N1CCN(C2(C)CCN(C(=O)c3c(C)ncnc3C)CC2)C[C@@H]1C; 0.0
CC[C@@H](c1ccc(C(F)(F)F)cc1)N1CCN(C2(C)CCN(C(=O)c3c(C)ncnc3C)CC2)C[C@@H]1C; 1.0

Now turn to the next molecule.
Query string: Could you please tell me whether IC50 recorded for Cc1ncnc(C)c1C(=O)N1CCC(C)(N2CCN([C@@H](CC3CC3)c3ccc(C(F)(F)F)cc3)[C@@H](C)C2)CC1 is less than 0.3 nM?
Result string: 0.0
